Data origin: patent US20230416227A1

Biological target: Human plasma kallikrein (Homo sapiens, UniProt P03952)
Construct: yields a heavy chain (371 amino acids) and a light chain (248 amino acids)
Sequence (P03952 391-638 limits assumed): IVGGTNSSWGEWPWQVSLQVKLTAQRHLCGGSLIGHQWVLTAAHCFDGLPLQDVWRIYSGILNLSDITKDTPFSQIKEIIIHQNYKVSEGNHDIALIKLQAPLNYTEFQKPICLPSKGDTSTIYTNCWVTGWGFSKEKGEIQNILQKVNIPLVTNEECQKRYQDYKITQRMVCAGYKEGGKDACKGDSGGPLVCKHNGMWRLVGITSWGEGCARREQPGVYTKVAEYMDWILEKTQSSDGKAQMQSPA
Sequence (P03952 20-390 partner limits assumed): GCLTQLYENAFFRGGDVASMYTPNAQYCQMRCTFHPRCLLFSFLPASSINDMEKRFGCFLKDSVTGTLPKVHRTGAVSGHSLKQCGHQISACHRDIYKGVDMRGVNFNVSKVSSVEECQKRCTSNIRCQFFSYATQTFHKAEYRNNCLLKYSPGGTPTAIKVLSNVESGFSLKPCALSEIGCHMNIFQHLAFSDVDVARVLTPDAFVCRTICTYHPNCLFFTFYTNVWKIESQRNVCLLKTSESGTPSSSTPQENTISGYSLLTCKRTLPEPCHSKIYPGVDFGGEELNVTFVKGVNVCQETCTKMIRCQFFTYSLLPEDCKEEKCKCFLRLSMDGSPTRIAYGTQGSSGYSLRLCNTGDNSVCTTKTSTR
Experiment: Plasma Kallikrein Assay
Conditions: purified Human plasma kallikrein 0.5 nM, substrate Acetyl-K-P-R-AFC, pH 7.4
Hi there, I'd appreciate the recorded IC50 for every entry that follows.
Please give a number only; it is taken to be in nM.

Would you mind telling me what IC50 value was observed for NC(=O)c1ncc(-c2c(C(F)F)ccc(Cl)c2F)nc1C(=O)Nc1cnn(Cc2cnc(N3CCC3)nc2)c1 ?
14.6

Would you mind telling me what IC50 value was observed for Cc1nc(C(C)n2cc(NC(=O)c3cncc(-c4c(C(F)F)ccc(Cl)c4F)n3)cn2)cnc1N1CCC1 (single isomer, unassigned) [Example 40] ?
3.7

Would you mind telling me what IC50 value was observed for O=C(Nc1cnn(Cc2ccc(N3CCCC3CO)nc2)c1)c1cncc(-c2c(C(F)F)ccc(Cl)c2F)n1 (stereo not drawn) ?
12.5

Would you mind telling me what IC50 value was observed for C[C@H](O)[C@H]1[C@H]2C[C@H]2CN1c1ncc(Cn2cc(NC(=O)c3cncc(-c4c(C(F)F)ccc(Cl)c4F)n3)cn2)cn1 ?
11.3

Would you mind telling me what IC50 value was observed for N#Cc1ccc(Cl)c(F)c1-c1cncc(C(=O)Nc2cnn(Cc3cnc(N4CCC4)nc3)c2)n1 ?
30.7

Would you mind telling me what IC50 value was observed for CC(c1cnc(N2CC[C@H]2CN2C[C@@H](O)[C@@H](O)C2)nc1)n1cc(NC(=O)c2cncc(-c3c(C(F)F)ccc(Cl)c3F)n2)cn1 (stereo partly drawn) ?
1
